Where do the numbers come from? From patent US20250034171A1.

- Tested on: Mycobacterium tuberculosis strain H37Rv
- test.summary: Test 2: MIC determination against M. tuberculosis, resazurin fluorescence
- Type: cell-based
- test.settings: Test 2, M. tuberculosis H37Rv
Listed here are compounds together with their documented Bacterial activity pMIC50.
Just the number, please, no unit attached.

[
  {
    "compound": "CCc1nc2ccccn2c1C(=O)NCc1ccc(-c2nc3n(n2)CC[C@@H](C(F)(F)F)C3)c(F)c1 (single isomer, unassigned)",
    "observed.result": 8.08
  },
  {
    "compound": "CCc1nc2n(c1C(=O)NCc1ccc(-c3nc4n(n3)CC[C@H](C(F)(F)F)C4)cc1)C[C@@H](C)CC2 (single isomer, unassigned) [Compound 75]",
    "observed.result": 7.48
  }
]

Proceed to the following item.
Exercise: # get_value(readout='Bacterial activity pMIC50', item= CCc1nc2ncc(NC(=O)OC(C)(C)C)cn2c1C(=O)NCc1ccc(-c2nc3n(n2)CCC(C(F)(F)F)C3)cc1 (stereo not drawn) )
Solution: 7.43
